test-system: Glutamate [NMDA] receptor
protocol-description: Binding affinity to NMDAR (unknown origin)
Type: protein-complex assay, Homo sapiens

smiles-entry: N[C@@H](Cc1ccccn1)c1ccccc1
Ki [nM]: 560

smiles-entry: CC[C@@]1(c2ccccc2Cl)CCCCC1=O
Ki [nM]: 659

smiles-entry: c1ccc2c(c1)C[C@H]1N[C@@H]2c2ccccc21
Ki [nM]: 37.2

smiles-entry: c1ccc(C2(N3CCCCC3)CCCCC2)cc1
Ki [nM]: 59

###

protocol-description: Permeability of compound in PBS at pH 7.4 incubated for 120 mins by UV spectroscopy assay based PAMPA-BBB assay
Format: ADME
cond: read-out: permeability

smiles-entry: O=C1CC[C@@]2(c3ccc(F)cc3)O[C@@H]3Cc4ccccc4[C@@H]3N12
Papp at 2 h / ×10⁻⁶ cm/s: 24.2
--
smiles-entry: O=C1CC[C@@]2(c3ccc(Br)cc3)O[C@@H]3Cc4ccccc4[C@@H]3N12
Papp at 2 h / ×10⁻⁶ cm/s: 12.3
--
smiles-entry: O=C1CC[C@]2(c3ccc(Cl)cc3)O[C@H]3Cc4ccccc4[C@@H]3N12
Papp at 2 h / ×10⁻⁶ cm/s: 15.8
--
smiles-entry: O=C1CC[C@@]2(c3ccc(Cl)cc3)O[C@@H]3Cc4ccccc4[C@@H]3N12
Papp at 2 h / ×10⁻⁶ cm/s: 19.2
--
smiles-entry: O=C1CC[C@]2(c3ccc(Br)cc3)O[C@H]3Cc4ccccc4[C@@H]3N12
Papp at 2 h / ×10⁻⁶ cm/s: 11.2

###

test-system: Glutamate NMDA receptor
protocol-description: Antagonist activity at NMDAR in embryonic cultures of rat cortical neuron assessed as inhibition of NMDA-induced calcium influx preincubated for 10 mins followed by NMDA addition by Fluo-4/AM dye based fluorescence assay
Assay type: tissue-based

smiles-entry: O=C1CC[C@@]2(c3ccc(F)cc3)O[C@@H]3Cc4ccccc4[C@@H]3N12
IC50, µM: 17
--
smiles-entry: O=C1CC[C@@]2(c3ccc(Br)cc3)O[C@@H]3Cc4ccccc4[C@@H]3N12
IC50, µM: 16
--
smiles-entry: O=C1CC[C@]2(c3ccc(F)cc3)O[C@H]3Cc4ccccc4[C@@H]3N12
IC50, µM: 15
--
smiles-entry: C[C@@H]1CC(=O)N2[C@H]3c4ccccc4C[C@H]3O[C@]12c1ccc(Cl)cc1
IC50, µM: 13
--
smiles-entry: O=C1CC[C@]2(c3ccc(Cl)cc3)O[C@H]3Cc4ccccc4[C@@H]3N12
IC50, µM: 13
--
smiles-entry: Cc1ccc([C@@]23CCC(=O)N2[C@H]2c4ccccc4C[C@H]2O3)cc1Cl
IC50, µM: 12
--
smiles-entry: C[C@H]1CC(=O)N2[C@H]3c4ccccc4C[C@@H]3O[C@@]12c1ccc(Cl)cc1
IC50, µM: 23
--
smiles-entry: Cc1ccc([C@@]23CCC(=O)N2[C@H]2c4ccccc4C[C@H]2O3)cc1
IC50, µM: 24
--
smiles-entry: O=C1CC[C@@]2(c3ccc(Cl)cc3)O[C@@H]3Cc4ccccc4[C@@H]3N12
IC50, µM: 17
--
smiles-entry: C[C@H]1CC(=O)N2[C@H]3c4ccccc4C[C@H]3O[C@]12c1ccc(Cl)cc1
IC50, µM: 17
--
smiles-entry: O=C1CC[C@]2(c3ccc(Br)cc3)O[C@H]3Cc4ccccc4[C@@H]3N12
IC50, µM: 11

###

test-system: Glutamate NMDA receptor
protocol-description: Antagonist activity at NMDAR in embryonic cultures of rat cortical neuron assessed as inhibition of NMDA-induced calcium influx at 30 uM preincubated for 10 mins followed by NMDA addition by Fluo-4/AM dye based fluorescence assay relative to control
Assay type: tissue-based
cond: read-out: IC50
IC50 listing for selected compounds.

compound: Cc1ccc([C@@]23CCC(=O)N2[C@H]2c4ccccc4C[C@H]2O3)cc1
readout-units: µM
IC50: 46
//
compound: O=C1CC[C@@]2(c3ccccc3)O[C@H]3Cc4ccccc4[C@@H]3N12
readout-units: µM
IC50: 29
//
compound: COc1ccc([C@@]23CCC(=O)N2[C@H]2c4ccccc4CC2O3)cc1F (single isomer, unassigned)
readout-units: µM
IC50: 13
//
compound: O=C1CC[C@]2(c3ccc(F)cc3)O[C@H]3Cc4ccccc4[C@@H]3N12
readout-units: µM
IC50: 61
//
compound: O=C1CC[C@]2(c3ccc(Cl)cc3)O[C@H]3Cc4ccccc4[C@@H]3N12
readout-units: µM
IC50: 65
//
compound: O=C1CC[C@@]2(c3ccc(Br)cc3)O[C@@H]3Cc4ccccc4[C@@H]3N12
readout-units: µM
IC50: 73
//
compound: O=C1CC[C@@]2(c3ccc(F)cc3)O[C@@H]3Cc4ccccc4[C@@H]3N12
readout-units: µM
IC50: 56
//
compound: C[C@@H]1CC(=O)N2[C@H]3c4ccccc4C[C@@H]3O[C@@]12c1ccc(Cl)cc1
readout-units: µM
IC50: 32
//
compound: Cc1ccc([C@]23CCC(=O)N2C2c4ccccc4C[C@@H]2O3)cc1Cl (single isomer, unassigned)
readout-units: µM
IC50: 49
//
compound: C[C@H]1CC(=O)N2[C@H]3c4ccccc4C[C@@H]3O[C@@]12c1ccc(Cl)cc1
readout-units: µM
IC50: 62
//
compound: Cc1ccc([C@@]23CCC(=O)N2[C@H]2c4ccccc4C[C@H]2O3)cc1Cl
readout-units: µM
IC50: 63
//
compound: O=C1CC[C@]2(c3ccc(Br)cc3)O[C@H]3Cc4ccccc4[C@@H]3N12
readout-units: µM
IC50: 66
//
compound: COc1ccc([C@@]23CCC(=O)N2[C@H]2c4ccccc4C[C@H]2O3)cc1
readout-units: µM
IC50: 4
//
compound: C[C@@H]1CC(=O)N2[C@H]3c4ccccc4C[C@H]3O[C@]12c1ccc(Cl)cc1
readout-units: µM
IC50: 69
//
compound: O=C1CCC[C@@]2(c3ccccc3)O[C@@H]3Cc4ccccc4[C@@H]3N12
readout-units: µM
IC50: 13
//
compound: O=C1CC[C@@]2(c3ccc(Cl)cc3)O[C@@H]3Cc4ccccc4[C@@H]3N12
readout-units: µM
IC50: 82
//
compound: C[C@H]1CC(=O)N2[C@H]3c4ccccc4C[C@H]3O[C@]12c1ccc(Cl)cc1
readout-units: µM
IC50: 80

###

Tested on: HepG2
protocol-description: Cytotoxicity against human HepG2 cells assessed as reduction in cell viability by MTT assay
Assay type: cell-based
measured-quantity: IC50

smiles-entry: O=C1CC[C@]2(c3ccc(Br)cc3)O[C@H]3Cc4ccccc4[C@@H]3N12
value-reported: > 100 µM
--
smiles-entry: Cc1ccc([C@@]23CCC(=O)N2[C@H]2c4ccccc4C[C@H]2O3)cc1Cl
value-reported: > 100 µM
--
smiles-entry: C[C@@H]1CC(=O)N2[C@H]3c4ccccc4C[C@H]3O[C@]12c1ccc(Cl)cc1
value-reported: 34 µM
--
smiles-entry: C[C@H]1CC(=O)N2[C@H]3c4ccccc4C[C@H]3O[C@]12c1ccc(Cl)cc1
value-reported: > 100 µM
